assay: method code SF-AS, from Hansch, C., Leo, A., & Hoekman, D. (1995). Exploring QSAR: hydrophobic, electronic, and steric constants (Vol. 2). Washington, DC: American Chemical Society.
QUANTITY: logP
Write the value as a bare number.

Please review the following examples before continuing.
>  <STRUCTURE NOTATION>
CC(C)(C)c1ccc2c(c1)OCCOCCOCCOCCOc1cc(C(C)(C)C)ccc1OCCOCCOCCOCCO2

>  <MEAS VALUE>
3.32

$$$$
>  <STRUCTURE NOTATION>
CC(=O)c1ccc2c(c1)OCCOCCOCCOCCOCCO2

>  <MEAS VALUE>
-0.05

$$$$
>  <STRUCTURE NOTATION>
CCc1cccc2c1OCCOCCOCCOCCOCCO2

>  <MEAS VALUE>
0.98

$$$$

Here is another compound to look at.
Which value of logP has been reported for c1ccc2c(c1)OCCOCCOc1ccccc1OCCO2 in the records?
2.21

====

details: pH 1.0
Entries and their logD
Write the value as a bare number.

Please review the following examples before continuing.
>  <MOLECULE>
O=C(O)c1c(Cl)cccc1Cl

>  <logD>
2.23

$$$$
>  <MOLECULE>
CC(C=CC1=C(C)CCCC1(C)C)=CC=CC(C)=CC(=O)O

>  <logD>
6.3

$$$$
>  <MOLECULE>
O=C(O)c1ccccc1N1C(=O)CCC1=O

>  <logD>
1.55

$$$$

Which value of logD has been reported for O=C(O)/C=C/c1ccc([N+](=O)[O-])cc1 in the records?
2.12

Thanks! And O=C(O)c1c2ccccc2cc2ccccc12 ?
3.85

Thanks! And O=C(O)CCCl ?
0.41

Thanks! And CCOc1ccc(C(=O)O)cc1OCC ?
2.37

Thanks! And O=C(O)CCCOc1ccc(Cl)cc1Cl ?
3.53

Thanks! And O=C(O)Cc1ccc2ccccc2c1 ?
2.81

Thanks! And CC(C)(CCC(=O)O)C(=O)O ?
0.67

====

conditions: pH 2.1
QUANTITY: logD
Write the value as a bare number.

Please review the following examples before continuing.
>  <STRUCTURE NOTATION>
CC(=O)Nc1ccc(S(N)(=O)=O)cc1

>  <logD>
0

$$$$
>  <STRUCTURE NOTATION>
CCCCCCOc1ccc(S(N)(=O)=O)cc1[N+](=O)[O-]

>  <logD>
3.03

$$$$
>  <STRUCTURE NOTATION>
CC(=O)c1cccc(S(N)(=O)=O)c1

>  <logD>
0.25

$$$$

Here is another compound to look at.
Which value of logD has been reported for CCCCCCOc1ccc(S(N)(=O)=O)cc1 in the records?
2.93

====

conditions: pH 13.0
Entries and their logD
Write the value as a bare number.

Please review the following examples before continuing.
>  <MOLECULE>
CCN(CC)CCN

>  <logD>
0.21

$$$$
>  <MOLECULE>
CC(C)(C)N(CC(O)COc1ccccc1)CC(O)COc1ccccc1 (configuration not stated)

>  <logD>
3.99

$$$$
>  <MOLECULE>
N=C(N)c1ccccc1

>  <logD>
0.65

$$$$
>  <MOLECULE>
NCCCN1CCN(CCCN)CC1

>  <logD>
-1.43

$$$$
>  <MOLECULE>
CNCCO

>  <logD>
-0.94

$$$$
>  <MOLECULE>
COc1c(C(C)C)cc(Cc2cnc(N)nc2N)cc1C(C)C

>  <logD>
3.47

$$$$
>  <MOLECULE>
CN(C1CCCCC1)C1CCCCC1

>  <logD>
3.71

$$$$
>  <MOLECULE>
Nc1ncc(Cc2ccccc2Cl)c(N)n1

>  <logD>
2.24

$$$$
>  <MOLECULE>
Cc1cc(Cc2cnc(N)nc2N)cc(C(C)C)c1N

>  <logD>
1.77

$$$$
>  <MOLECULE>
CCCNC

>  <logD>
0.84

$$$$

Which value of logD has been reported for C[C@@H]1CCC[C@H](C)N1 in the records?
1.53

Thanks! And CN1CCCNCC1 ?
-0.4

Thanks! And NC(=O)COc1ccccc1Cc1nc(N)cc(N)n1 ?
-0.34

Thanks! And c1ccc(C23CCN(CC2)CC3)cc1 ?
2.54

Thanks! And CC1(C)CCCC(C)(C)N1 ?
2.15

Thanks! And C1CCC2=NCCCN2CC1 ?
1.38

Thanks! And CNCCNC ?
-0.62

====

Entries and their logP
Write the value as a bare number.

Please review the following examples before continuing.
>  <STRUCTURE NOTATION>
Cc1ccncn1

>  <logP>
0.16

$$$$
>  <STRUCTURE NOTATION>
O=C1c2ccccc2C(=O)N1c1ccccc1

>  <logP>
2.4

$$$$
>  <STRUCTURE NOTATION>
c1ccc(CCCc2ccccc2)cc1

>  <logP>
3.43

$$$$
>  <STRUCTURE NOTATION>
O=[N+]([O-])c1ccco1

>  <logP>
0.66

$$$$
>  <STRUCTURE NOTATION>
Cn1c(N)nc2cc(Cl)c(Cl)cc21

>  <logP>
2.98

$$$$
>  <STRUCTURE NOTATION>
CS(=O)(=O)N1C(=O)c2ccc(N)cc2C1=O

>  <logP>
0.8

$$$$
>  <STRUCTURE NOTATION>
CN(C)C(CSS(=O)(=O)c1ccccc1)CSS(=O)(=O)c1ccccc1

>  <logP>
3.36

$$$$
>  <STRUCTURE NOTATION>
CN(C)C1=CC(=O)C(N(C)C)=CC1=O

>  <logP>
1.03

$$$$

Which value of logP has been reported for O=c1n[n+]([O-])ccn1[C@@H]1O[C@H](CO)[C@@H](O)[C@H]1O in the records?
-2.43

Thanks! And CNC(=S)NNc1ccccc1 ?
1.17

Thanks! And COc1ccc(C(C)=O)c(OC)c1OC ?
1.63

Thanks! And Cc1ccc(/C=N/O)cc1 ?
2.4

Thanks! And NC(=O)Cc1cccs1 ?
0.33

Thanks! And c1ccc(P(c2ccccc2)c2ccccc2)cc1 ?
5.69

====

QUANTITY: logP
Write the value as a bare number.

Please review the following examples before continuing.
>  <MOLECULE>
CC(=O)Nc1nccs1

>  <logP>
0.76

$$$$
>  <MOLECULE>
Oc1ccc(Sc2ccc(O)cc2)cc1

>  <logP>
3.34

$$$$
>  <MOLECULE>
Nc1ccc(S)cc1

>  <logP>
1.31

$$$$
>  <MOLECULE>
C1=C\C=C/C=C\C=C/1

>  <logP>
3.08

$$$$

Here is another molecule to look at.
Which value of logP has been reported for O=CN1CCCC1 in the records?
-0.32

====

settings: pH 7.4
QUANTITY: logD
Write the value as a bare number.

Please review the following examples before continuing.
>  <MOLECULE>
CN1C(=O)CN=C(c2ccccc2)c2cc(C#N)ccc21

>  <logD>
1.8

$$$$
>  <MOLECULE>
Nc1ccc(Sc2ccc(N)cc2)cc1

>  <logD>
2.18

$$$$
>  <MOLECULE>
OCc1ccc2cccnc2c1

>  <logD>
1.29

$$$$
>  <MOLECULE>
O=C(Cn1ccnc1[N+](=O)[O-])NCc1ccccc1

>  <logD>
0.85

$$$$
>  <MOLECULE>
Cc1nc([N+](=O)[O-])cn1COCCS(C)(=O)=O

>  <logD>
-0.84

$$$$
>  <MOLECULE>
Clc1cccc2cccnc12

>  <logD>
2.44

$$$$
>  <MOLECULE>
O=C(/C=C/c1ccc([N+](=O)[O-])o1)N/N=C/c1ccc([N+](=O)[O-])o1

>  <logD>
2.22

$$$$
>  <MOLECULE>
CCOc1cccc2cccnc12

>  <logD>
2.25

$$$$

Which value of logD has been reported for Cc1nc(C)c([N+](=O)[O-])[nH]1 in the records?
0.43

Thanks! And CN(C(F)(F)F)S(=O)(=O)CCCn1ccnc1C=NO ?
1.77

Thanks! And CN(C)c1ccc2c(c1)C(c1ccccc1Cl)=NCC(=O)N2C ?
2.72

Thanks! And Cc1ccnc2ccccc12 ?
2.61

Thanks! And C#CCn1ncc2cc([N+](=O)[O-])ccc21 ?
0.52

====

logP vs 2: at or above is 1 (yes), below is 0 (no).

Sample answers from the record:
>  <COMPOUND>
Cn1cccc1/C=N/NC(=S)Nc1ccccc1

>  <ASSIGNED LABEL>
1 (yes)

$$$$
>  <COMPOUND>
CCS(=O)(=O)c1c([N+](=O)[O-])ncn1C

>  <ASSIGNED LABEL>
0 (no)

$$$$
>  <COMPOUND>
C=CCSc1ccccc1

>  <ASSIGNED LABEL>
1 (yes)

$$$$
>  <COMPOUND>
CN(C)C1=CC(=O)c2ccccc2C1=O

>  <ASSIGNED LABEL>
0 (no)

$$$$
>  <COMPOUND>
N#Cc1sc2c(=O)c3ccccc3c(=O)c=2sc1C#N

>  <ASSIGNED LABEL>
1 (yes)

$$$$
>  <COMPOUND>
c1ccc(N2CCCC2)cc1

>  <ASSIGNED LABEL>
1 (yes)

$$$$
>  <COMPOUND>
CNC(=O)c1ccco1

>  <ASSIGNED LABEL>
0 (no)

$$$$
>  <COMPOUND>
O=C(O)COc1cc(F)cc(I)c1

>  <ASSIGNED LABEL>
1 (yes)

$$$$
>  <COMPOUND>
C/C=C\C=C\C

>  <ASSIGNED LABEL>
1 (yes)

$$$$
>  <COMPOUND>
CN(C)c1cccnc1

>  <ASSIGNED LABEL>
0 (no)

$$$$

Assess whether reported logP for CC(C)C(=O)C(C)C sits at 2 or higher.
0 (no)

Thanks! And O=C(O)Cc1ccccc1Nc1c(F)cccc1F ?
1 (yes)

Thanks! And CN(C)C(=O)c1ccccc1O ?
0 (no)

Thanks! And OCC=CCO ?
0 (no)

Thanks! And O=C(N/N=C/c1ccco1)Nc1ccccc1 ?
1 (yes)

Thanks! And c1ccc(-c2ccncn2)cc1 ?
0 (no)

Thanks! And CNCCN(C)C ?
0 (no)

Thanks! And Clc1nc(Cl)nc(Nc2ccccc2Cl)n1 ?
1 (yes)

Thanks! And CC(C)(C)C1=Nc2ccc(Cl)cc2S(=O)(=O)N1 ?
1 (yes)

Thanks! And CCC(C(N)=O)(C(N)=O)c1ccccc1 ?
0 (no)

Thanks! And Ic1ccc(I)cc1 ?
1 (yes)

Thanks! And Oc1ccc(CCNCCCCCCNCCc2ccccc2)cc1O ?
0 (no)

Thanks! And COc1ccc2c(c1)nc(N)n2C ?
0 (no)

Thanks! And FCC1CO1 (configuration not stated) ?
0 (no)

Thanks! And CC1(C)N=C(N)N=C(N)N1c1cccc(OCCOc2ccccc2)c1 ?
0 (no)

Thanks! And CC(C)I ?
1 (yes)
